Cited source for all entries: PubChem BioAssay AID588772

- Test system: 3C-like protease (3CLpro), SARS coronavirus
- assay_procedure: SARS 3CLpro protease inhibitors, late-stage follow-up, biochemical, fluorescence, single concentration, set 4 (AID 588772)
- particulars: recombinant 3CLpro, fluorogenic substrate cleavage; at 100 µM; hits give high values
Please mark 1 if the recorded inhibition is equal to or greater than 50%, and -1 if it falls below.

Solved entries:
molecule: CC(C)(C)NC(=O)C(c1cccnc1)N(C(=O)c1cc2ccccc2o1)c1ccc(C(C)(C)C)cc1 (centres undefined)
assay_system: 3C-like protease (3CLpro), SARS coronavirus
group_label: -1

molecule: CC(C)(C)NC(=O)C(c1ccccn1)N(C(=O)c1ccco1)c1ccc(C(C)(C)C)cc1 (centres undefined)
assay_system: 3C-like protease (3CLpro), SARS coronavirus
group_label: -1

molecule: COc1cccc(Oc2ccc(N(C(=O)c3ccco3)C(C(=O)NC(C)(C)C)c3cccnc3)cc2)c1 (centres undefined)
assay_system: 3C-like protease (3CLpro), SARS coronavirus
group_label: 1

molecule: CC(C)(C)NC(=O)C(c1cccnc1)N(C(=O)c1ccco1)c1ccc(-c2cccn2C(=O)OC(C)(C)C)cc1 (centres undefined)
assay_system: 3C-like protease (3CLpro), SARS coronavirus
group_label: 1

molecule: CC(C)(C)NC(=O)C(c1cccnc1)N(C(=O)c1ccco1)c1ccc(-c2ccncc2)cc1 (centres undefined)
assay_system: 3C-like protease (3CLpro), SARS coronavirus
group_label: -1

Would you say CC(C)(C)c1ccc(N(Cc2cccnc2)C(=O)c2cnc[nH]2)cc1 shows inhibition at minimum 50%?
-1

Would you say CC(C)(C)NC(=O)C(c1ccncc1)N(C(=O)c1ccco1)c1ccc(C(C)(C)C)cc1 (centres undefined) shows inhibition at minimum 50%?
1

Would you say CC(C)(C)NC(=O)C(c1cn[nH]n1)N(C(=O)c1ccco1)c1ccc(C(C)(C)C)cc1 (centres undefined) shows inhibition at minimum 50%?
-1

Would you say CC(C)(C)NC(=O)[C@H](c1cccnc1)N(C(=O)c1cnc[nH]1)c1ccc(C(C)(C)C)cc1 shows inhibition at minimum 50%?
1
